- system_under_test: Cannabinoid receptor 2 (Homo sapiens)
- Sequence (P34972 whole entry): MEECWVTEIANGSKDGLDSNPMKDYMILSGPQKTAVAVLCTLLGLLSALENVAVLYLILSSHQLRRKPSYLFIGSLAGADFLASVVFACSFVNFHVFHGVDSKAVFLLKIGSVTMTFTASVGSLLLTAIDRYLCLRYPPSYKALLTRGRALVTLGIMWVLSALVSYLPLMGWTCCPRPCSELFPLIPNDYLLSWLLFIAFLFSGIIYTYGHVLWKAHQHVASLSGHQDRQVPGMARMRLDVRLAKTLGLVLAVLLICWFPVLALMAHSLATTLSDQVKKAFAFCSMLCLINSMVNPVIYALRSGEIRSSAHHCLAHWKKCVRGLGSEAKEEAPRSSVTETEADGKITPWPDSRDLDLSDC
property_name: pKi
pKi is a log-scale quantity: -log10 of the concentration expressed in molar.

Examples from the recorded data:
{"columns": ["smi", "assay_result"],
 "data": [
  ["CC(C)=CCC[C@]1(C)[C@@H](O)CC[C@@]2(C)[C@H]1CC[C@H]1Cc3c([nH]c4ccccc34)[C@@]12C", 5.65],
  ["CC(C)=CCC[C@]1(C)[C@@H](O[C@@H]2O[C@H](CO)[C@@H](O)[C@H](O)[C@@H]2O)CC[C@@]2(C)[C@H]1CC[C@H]1Cc3c([nH]c4ccccc34)[C@@]12C", 4.97]
]}

// below: pKi requested for another molecule
Query: Data request, read-out pKi, for CC(C)=C[C@H]1C[C@]2(C)[C@H](CC[C@@]3(C)[C@H]2CC[C@H]2Cc4c([nH]c5ccccc45)[C@@]23C)O1
Response: 5.32

* * *

# IC50 annotations
- system_under_test: UniProt:Q14330
- procedure_details: Inverse agonist activity at human GPR18 expressed in CHO cells assessed as inhibition of 7.5 uM THC-mediated beta-arrestin recruitment after 90 mins by beta-galactosidase reporter gene assay
- Type: cell-based
Express the result in µM but write the number alone.

{"columns": ["smi", "assay_result"],
 "data": [
  ["COC(C)(C)/C=C/C[C@]1(C)[C@@H](O)CC[C@@]2(C)[C@H]1CC[C@H]1Cc3c([nH]c4ccccc34)[C@@]12C", 13.4]
]}

// below: IC50 requested for another compound
Query: Data request, read-out IC50, for CC(C)=C[C@H]1C[C@]2(C)[C@H](CC[C@@]3(C)[C@H]2CC[C@H]2Cc4c([nH]c5ccccc45)[C@@]23C)O1
Response: 9.91

* * *

- system_under_test: N-arachidonyl glycine receptor (Homo sapiens)
- Sequence (Q14330 whole entry): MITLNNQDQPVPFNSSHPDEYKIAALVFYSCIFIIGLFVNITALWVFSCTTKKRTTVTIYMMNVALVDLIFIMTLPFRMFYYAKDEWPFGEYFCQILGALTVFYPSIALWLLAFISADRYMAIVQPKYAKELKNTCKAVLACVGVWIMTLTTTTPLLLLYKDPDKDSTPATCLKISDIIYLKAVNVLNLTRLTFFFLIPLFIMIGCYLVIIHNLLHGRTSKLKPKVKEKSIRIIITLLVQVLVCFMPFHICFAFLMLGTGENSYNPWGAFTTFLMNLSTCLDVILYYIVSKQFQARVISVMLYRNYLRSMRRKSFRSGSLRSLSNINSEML
- procedure_details: Antagonist activity at human GPR18 expressed in CHO cells assessed as inhibition of […] uM THC-mediated beta-arrestin recruitment after 90 mins by beta-galactosidase reporter gene assay
- Format: cell-based
pIC50: −log10 of the molar value.
property_name: pIC50

{"columns": ["compound", "pIC50"],
 "data": [
  ["CC(C)=CCC[C@]1(C)[C@@H](O[C@@H]2O[C@H](CO)[C@@H](O)[C@H](O)[C@@H]2O)CC[C@@]2(C)[C@H]1CC[C@H]1Cc3c([nH]c4ccccc34)[C@@]12C", "< 5.00"]
]}

// below: pIC50 requested for another compound
Query: Data request, read-out pIC50, for CC(C)=CCC[C@]1(C)[C@@H](O)CC[C@@]2(C)[C@H]1CC[C@H]1Cc3c([nH]c4ccccc34)[C@@]12C [EMINDOLE SB]
Response: < 5.00

* * *

# Ki annotations
- system_under_test: Cannabinoid receptor 1 (Homo sapiens, UniProt P21554)
- Sequence (P21554 whole entry): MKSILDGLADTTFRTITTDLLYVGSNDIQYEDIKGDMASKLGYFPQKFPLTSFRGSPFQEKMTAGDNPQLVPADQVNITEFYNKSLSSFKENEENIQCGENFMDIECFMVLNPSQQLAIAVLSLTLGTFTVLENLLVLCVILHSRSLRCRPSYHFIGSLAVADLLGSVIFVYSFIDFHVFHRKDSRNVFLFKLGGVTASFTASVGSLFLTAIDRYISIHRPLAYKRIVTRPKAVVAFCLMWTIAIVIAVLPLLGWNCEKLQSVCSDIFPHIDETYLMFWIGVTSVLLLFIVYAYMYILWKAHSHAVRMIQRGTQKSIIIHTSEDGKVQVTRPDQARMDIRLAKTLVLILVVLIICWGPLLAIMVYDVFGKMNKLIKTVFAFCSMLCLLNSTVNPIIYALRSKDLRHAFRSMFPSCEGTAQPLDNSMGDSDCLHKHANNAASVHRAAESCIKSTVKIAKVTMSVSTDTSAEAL
- procedure_details: Displacement of [3H]-CP55940 from human CB1 receptor expressed in CHO cells
- Format: cell-based
Express the result in µM but write the number alone.

Examples from the recorded data:
{"columns": ["compound", "system_under_test", "property_name", "readout_unit", "assay_result"],
 "data": [
  ["CC(C)=CCC[C@]1(C)[C@@H](O[C@@H]2O[C@H](CO)[C@@H](O)[C@H](O)[C@@H]2O)CC[C@@]2(C)[C@H]1CC[C@H]1Cc3c([nH]c4ccccc34)[C@@]12C", "Cannabinoid receptor 1 (Homo sapiens, UniProt P21554)", "Ki", "µM", 10.6],
  ["CC(C)=CCC[C@]1(C)[C@@H](O)CC[C@@]2(C)[C@H]1CC[C@H]1Cc3c([nH]c4ccccc34)[C@@]12C [EMINDOLE SB]", "Cannabinoid receptor 1 (Homo sapiens, UniProt P21554)", "Ki", "µM", 7.05]
]}

// below: Ki requested for another compound
Query: Data request, read-out Ki, for CC(C)=C[C@H]1C[C@]2(C)[C@H](CC[C@@]3(C)[C@H]2CC[C@H]2Cc4c([nH]c5ccccc45)[C@@]23C)O1
Response: 4.4
